Target: USP7 (Homo sapiens, UniProt Q93009)
Construct: USP7, construct USP7 (208-1102) 6*His, Viva Biotech; 6xHis (C); purchased Viva Biotech
Sequence (Q93009 208-1102): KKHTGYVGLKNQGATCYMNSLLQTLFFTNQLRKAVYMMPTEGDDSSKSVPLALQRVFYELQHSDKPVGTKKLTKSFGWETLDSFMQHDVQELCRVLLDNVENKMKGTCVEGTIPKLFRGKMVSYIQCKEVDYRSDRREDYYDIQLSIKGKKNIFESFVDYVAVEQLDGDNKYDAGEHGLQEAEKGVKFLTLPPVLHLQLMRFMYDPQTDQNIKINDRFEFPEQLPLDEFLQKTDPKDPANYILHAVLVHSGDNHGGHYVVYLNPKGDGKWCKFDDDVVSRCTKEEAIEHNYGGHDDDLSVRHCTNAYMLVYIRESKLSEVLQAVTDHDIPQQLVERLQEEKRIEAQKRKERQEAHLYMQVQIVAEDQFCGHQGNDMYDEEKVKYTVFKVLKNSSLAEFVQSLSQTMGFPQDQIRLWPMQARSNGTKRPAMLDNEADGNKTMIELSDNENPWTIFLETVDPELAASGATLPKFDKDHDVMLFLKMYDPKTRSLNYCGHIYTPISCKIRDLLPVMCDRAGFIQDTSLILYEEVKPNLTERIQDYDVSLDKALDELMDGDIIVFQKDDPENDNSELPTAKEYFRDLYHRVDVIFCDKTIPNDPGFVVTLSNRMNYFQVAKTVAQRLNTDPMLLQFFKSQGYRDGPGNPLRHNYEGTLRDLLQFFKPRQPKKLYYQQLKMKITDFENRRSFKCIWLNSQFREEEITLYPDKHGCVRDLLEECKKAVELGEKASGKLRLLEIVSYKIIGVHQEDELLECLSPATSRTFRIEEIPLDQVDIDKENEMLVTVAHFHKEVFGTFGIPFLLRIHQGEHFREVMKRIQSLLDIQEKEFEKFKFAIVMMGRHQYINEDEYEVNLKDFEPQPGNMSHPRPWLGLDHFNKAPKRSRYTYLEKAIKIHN
Test: USP7 Assay A (Ubitquin-Rhodamine 110 Assay)
Format: biochemical
Details: USP7 assay A and B (table does not say which assay per compound); read-out: USP7_IC50
Protocol: Each assay was performed in a final volume of 15 μL in assay buffer containing 20 mM Tris-HCl (pH 8.0, (1M Tris-HCl, pH 8.0 solution; Corning 46-031-CM)), 1 mM GSH (L-Glutathione reduced; Sigma #G4251), 0.03% BGG ([…], Sigma, #G7516-25G), and 0.01% Triton X-100 (Sigma, #T9284-10L). […] Fluorescence was read on the Envision (Excitation at 485 nm and Emission at 535 nm; Perkin Elmer) or on the PheraSTAR (Excitation at 485 nm and Emission at 535 nm; BMG Labtech). […]
pIC50: −log10 of the molar value.
Reported pIC50 values are given for each entry in this list.

A selection of reference data follows.
O=C(c1cnc(C2CC2)o1)N1CCC(O)(Cn2cnc3c(cnn3-c3ccc(F)cc3)c2=O)CC1 [Compound I-314] :: 6.00 to 6.70
O=C(N1CCC(O)(Cn2cnc3c(cnn3-c3ccccc3)c2=O)CC1)C1(C(F)(F)F)CC1 [Compound I-277] :: 5.00 to 6.00
CN(C)CCN(C)c1cccc(-n2ncc3c(=O)n(CC4(O)CCN(C(=O)c5ccc(F)cc5)CC4)cnc32)c1 [Compound I-823] :: 6.00 to 6.70
COCCN(C)Cc1ccc(-n2ncc3c(=O)n(CC4(O)CCN(C(=O)C5CC5)CC4)cnc32)cc1 [Compound I-434] :: 5.00 to 6.00
C[C@H](CC(=O)N1CCC(O)(Cn2cnc3c(cnn3-c3ccc(F)cc3)c2=O)CC1)n1cc2c(n1)CCC2 [Compound I-520] :: < 5.00

Q. pIC50 for CN(C)c1ncc(C(=O)N2CCC(O)(Cn3cnc4c(cnn4-c4ccc(F)cc4)c3=O)CC2)o1 [Compound I-315] ?
A. 5.00 to 6.00

Q. Report pIC50 for O=C(c1ccccc1)N1CCC(O)(Cn2cnc3c(cnn3-c3ccccc3O)c2=O)CC1 [Compound I-18] please.
A. < 5.00

Q. Report pIC50 for O=C(c1ccc(F)cc1)N1CCC(O)(Cn2cnc3c(cnn3-c3ccc(F)c(O)c3)c2=O)CC1 [Compound I-632] please.
A. 5.00 to 6.00

====

Each item that follows carries a reported pIC50.
Biological target: USP7 (Homo sapiens, UniProt Q93009)
Construct: USP7, construct USP7 (208-1102) 6*His, Viva Biotech; 6xHis (C); purchased Viva Biotech
Test: USP7 Assay A (Ubitquin-Rhodamine 110 Assay)
Type: biochemical
Settings: USP7 activity in USP7 assay A and B (table does not say which assay per compound); read-out: USP7_IC50
pIC50: −log10 of the molar value.

Example entries begin here.
Cc1cn(-c2ccc(-n3ncc4c(=O)n(CC5(O)CCN(C(=O)c6ccc(F)cc6)CC5)cnc43)cc2)cn1 :: 5.00 to 6.00
O=C(c1ccnn1Cc1ccccc1)N1CCC(O)(Cn2cnc3c(cnn3-c3ccc(F)cc3)c2=O)CC1 :: 6.00 to 6.70
O=C(c1ccc(F)cc1)N1CCC(O)(Cn2cnc3c(cnn3-c3ccc(N4CCCn5nccc54)cc3)c2=O)CC1 :: 6.00 to 6.70
Cn1ccc(NC2CCC(C(=O)N3CCC(O)(Cn4cnc5c(ccn5-c5ccc(F)cc5)c4=O)CC3)CC2)n1 (stereo not drawn) [Compound I-1040] :: 5.00 to 6.00

Q. Request body: readout pIC50, system USP7 (Homo sapiens, UniProt Q93009), query `O=C(c1ccc(F)cc1)N1CCC(O)(Cn2cnc3c(cnn3-c3ccc(N4CC[C@H](O)C4)cc3)c2=O)CC1` . Return the value.
A. 5.00 to 6.00

Q. Form field - read-out: pIC50; system: USP7 (Homo sapiens, UniProt Q93009); submitted item: `CC1(C(=O)N2CCC(O)(Cn3cnc4c(cnn4-c4cccc(N5CCN(C6COC6)CC5)c4)c3=O)CC2)CC1`
A. 6.00 to 6.70

====

Biological target: USP7 (Homo sapiens)
Construct: USP7, construct USP7 (208-1102) 6*His, Viva Biotech; 6xHis (C); purchased Viva Biotech
Assay: USP7 Assay A (Ubitquin-Rhodamine 110 Assay)
Format: biochemical
Details: USP7 activity in USP7 assay A and B (table does not say which assay per compound); read-out: USP7_IC50
pIC50: −log10 of the molar value.
Listed here: items and their measured pIC50.

Q. Requested field: pIC50. Item: O=C(C1CCC(Oc2cccc(F)n2)CC1)N1CCC(O)(Cn2cnc3c(cnn3-c3ccc(F)cc3)c2=O)CC1 (stereo not drawn) [Compound I-739]
A. > 6.70

Q. Given C[C@H](CC(=O)N1CCC(O)(Cn2cnc3c(cnn3-c3ccc(F)cc3)c2=O)CC1)n1ccc(F)n1 [Compound I-1028] , state its recorded pIC50.
A. > 6.70

====

Target: USP7 (Homo sapiens, UniProt Q93009)
Construct: USP7, construct USP7 (208-1102) 6*His, Viva Biotech; 6xHis (C); purchased Viva Biotech
Assay: USP7 Assay A (Ubitquin-Rhodamine 110 Assay)
Assay type: biochemical
Conditions: USP7 assay A and B (table does not say which assay per compound); read-out: USP7_IC50
Protocol: Each assay was performed in a final volume of 15 μL in assay buffer containing 20 mM Tris-HCl (pH 8.0, (1M Tris-HCl, pH 8.0 solution; Corning 46-031-CM)), 1 mM GSH (L-Glutathione reduced; Sigma #G4251), 0.03% BGG ([…], Sigma, #G7516-25G), and 0.01% Triton X-100 (Sigma, #T9284-10L). […] Fluorescence was read on the Envision (Excitation at 485 nm and Emission at 535 nm; Perkin Elmer) or on the PheraSTAR (Excitation at 485 nm and Emission at 535 nm; BMG Labtech). […]
pIC50: −log10 of the molar value.
Measured pIC50 accompanies every entry in the list below.

Q. Looking for the measured pIC50 of `C#CC(=O)N[C@@H]1CC[C@@H]1C(=O)N1CCC(O)(Cn2cnc3c(cnn3-c3ccc(F)cc3)c2=O)CC1` , can you help?
A. 6.00 to 6.70

Q. Item under review: `Cn1cc(-n2ncc3c(=O)n(CC4(O)CCN(C(=O)c5ccc(F)cc5)CC4)cnc32)cn1` . Reported pIC50?
A. 5.00 to 6.00

Q. Name the recorded pIC50 for `CN(C)C(=O)c1ccc(-c2cccc(-n3ncc4c(=O)n(CC5(O)CCN(C(=O)C6CC6)CC5)cnc43)c2)cc1` .
A. 5.00 to 6.00

Q. Look up pIC50: `Cn1ncc2c(=O)n(CC3(O)CCN(C(=O)c4ccc(NS(=O)(=O)c5ccccc5)cc4)CC3)cnc21`
A. 5.00 to 6.00

====

Biological target: USP7 (Homo sapiens)
Construct: USP7, construct USP7 (208-1102) 6*His, Viva Biotech; 6xHis (C); purchased Viva Biotech
Assay: USP7 Assay A (Ubitquin-Rhodamine 110 Assay)
Format: biochemical
Settings: USP7 activity in USP7 assay A and B (table does not say which assay per compound); read-out: USP7_IC50
IC50 overview

Cc1cc(Oc2ccc(C(=O)N3CCC(O)(Cn4cnc5c(cnn5-c5ccc(F)cc5)c4=O)CC3)cc2)no1 [Compound I-563] :: 1000 to 10000 nM
O=C(c1ccc(F)cc1)N1CCC(O)(Cn2cnc3c(cnn3-c3ccc(-c4cnn(C5CS(=O)(=O)C5)c4)cc3)c2=O)CC1 [Compound I-1745] :: 200 to 1000 nM
CN[C@H]1CCN(c2ccc(-c3ccc(-n4ncc5c(=O)n(CC6(O)CCN(C(=O)C7CC7)CC6)cnc54)cc3)cn2)C1 [Compound I-684] :: < 200 nM
CC1(C(=O)N2CCC(O)(Cn3cnc4c(cnn4-c4ccc(N5CC(O)C5)cc4)c3=O)CC2)CC1 [Compound I-1677] :: 200 to 1000 nM
O=C(c1ccc(-n2cncn2)cc1)N1CCC(O)(Cn2cnc3c(cnn3-c3ccc(Cl)cc3)c2=O)CC1 [Compound I-1090] :: 200 to 1000 nM

Q. Query (molecule): O=C(C1CCC(Nc2cccnc2F)CC1)N1CCC(O)(Cn2cnc3c(cnn3-c3ccccc3)c2=O)CC1 (single isomer, unassigned) [Compounds I-1039] ; field requested: IC50
A. 200 to 1000 nM

====

Target: USP7 (Homo sapiens)
Construct: USP7, construct USP7 (208-1102) 6*His, Viva Biotech; 6xHis (C); purchased Viva Biotech
Test: USP7 Assay A (Ubitquin-Rhodamine 110 Assay)
Type: biochemical
Settings: USP7 activity in USP7 assay A and B (table does not say which assay per compound); read-out: USP7_IC50
Measured metric: IC50

CC1(C(=O)N2CCC(O)(Cn3cnc4c(cnn4-c4ccc(N5CC(F)C5)cc4)c3=O)CC2)CC1 :: 0.2 to 1 µM

Q. What measured IC50 goes with `CN1CC[C@@H](Oc2ccc(-c3ccc(-n4ncc5c(=O)n(CC6(O)CCN(C(=O)C7CC7)CC6)cnc54)cc3)cc2)C1` ?
A. < 0.2 µM

Q. Need IC50, item Cn1nccc1OC1CCC(C(=O)N2CCC(O)(Cn3cnc4c(cnn4-c4ccc(F)cc4)c3=O)CC2)CC1 (stereo not shown)
A. 1 to 10 µM

The reported numbers originate from patent US9902728B2.
